Kindly state pKi for each of the entries shown.
molecular target: GRP receptors on rat pancreatic acini (Rattus norvegicus)
pKi: −log10 of the molar value. Where a SMILES comes first, the peptide text is derived from it. Bridges are numbered along the chain shown (N, C = ends). [ ]: non-standard residue; d: D form. 2Nal = N[C@@H](Cc1ccc2ccccc2c1)C(=O)O; d2Nal = N[C@H](Cc1ccc2ccccc2c1)C(=O)O; Lys(Et2) = CCN(CC)CCCC[C@H](N)C(=O)O

Give the value of pKi reported for the following: CC(C)[C@@H]1NC(=O)[C@H](CCCCN)NC(=O)[C@@H](Cc2c[nH]c3ccccc23)NC(=O)[C@H](Cc2ccc(O)cc2)NC(=O)[C@@H](NC(=O)[C@H](N)Cc2ccc3ccccc3c2)CSSC[C@H](C(=O)N[C@@H](Cc2ccc3ccccc3c2)C(N)=O)NC1=O [Analog #11] (H-[d2Nal]CY[dW]KV[dC][2Nal]-NH2; disulfide 2-7)
< 5.00

Look up pKi of CC(C)[C@@H]1NC(=O)[C@H](CCCCN)NC(=O)[C@@H](Cc2c[nH]c3ccccc23)NC(=O)[C@H](Cc2ccc(O)cc2)NC(=O)[C@@H](NC(=O)[C@@H](N)Cc2ccc3ccccc3c2)CSSC[C@@H](C(=O)N[C@H](Cc2ccc3ccccc3c2)C(N)=O)NC1=O [Analog #9] (H-[2Nal]CY[dW]KVC[d2Nal]-NH2; disulfide 2-7) and report it.
< 5.00

Tell me pKi reported for CCN(CC)CCCC[C@@H]1NC(=O)[C@@H](Cc2c[nH]c3ccccc23)NC(=O)[C@H](Cc2ccc(O)cc2)NC(=O)[C@@H](NC(=O)[C@H](N)Cc2ccccc2)CSSC[C@@H](C(=O)N[C@@H](Cc2ccc3ccccc3c2)C(N)=O)NC(=O)[C@H]([C@@H](C)O)NC1=O [Analog #16] (H-[dF]CY[dW][Lys(Et2)]TC[2Nal]-NH2; disulfide 2-7)
< 5.00

* * *

molecular target: NMB receptor (Rattus norvegicus); test: [3H]inositol phosphates in NMB-R transfected cells (alone or NMB-stimulated); format: cell-based; set-up: a full length NMB-preferring bombesin receptor clone generated from rat esophagus; expressed in transfected cells; conditions: NMB-R transfected cells; 3 nM NMB; read-out: IC50 NMB-stimulated [3H]IP, Transfected Cells (values in μM)
Where a SMILES comes first, the peptide text is derived from it. Bridges are numbered along the chain shown (N, C = ends). [ ]: non-standard residue; d: D form. 2Nal = N[C@@H](Cc1ccc2ccccc2c1)C(=O)O; d2Nal = N[C@H](Cc1ccc2ccccc2c1)C(=O)O; Lys(iPr) = CC(C)NCCCC[C@H](N)C(=O)O
Outcome Measure: IC50

# lookup: NMB receptor (Rattus norvegicus) IC50, key = CC(C)NCCCC[C@@H]1NC(=O)[C@@H](Cc2c[nH]c3ccccc23)NC(=O)[C@H](Cc2ccc(O)cc2)NC(=O)[C@@H](NC(=O)[C@H](N)Cc2ccccc2)CSSC[C@@H](C(=O)N[C@@H](Cc2ccc3ccccc3c2)C(N)=O)NC(=O)[C@H]([C@@H](C)O)NC1=O [Analog #15] (H-[dF]CY[dW][Lys(iPr)]TC[2Nal]-NH2; disulfide 2-7)
7.2 to 9.8 µM

Send back NMB receptor (Rattus norvegicus) IC50 of NCCCC[C@@H]1NC(=O)[C@@H](Cc2c[nH]c3ccccc23)NC(=O)[C@H](Cc2ccc(O)cc2)NC(=O)[C@@H](NC(=O)[C@H](N)Cc2ccc3ccccc3c2)CSSC[C@@H](C(=O)N[C@@H](Cc2ccc3ccccc3c2)C(N)=O)NC(=O)[C@H](Cc2ccccc2)NC1=O [Analog #13] (H-[d2Nal]CY[dW]KFC[2Nal]-NH2; disulfide 2-7) only.
1.2 to 1.8 µM

Give the observed IC50 of CC(C)[C@@H]1NC(=O)[C@H](CCCCN)NC(=O)[C@@H](Cc2c[nH]c3ccccc23)NC(=O)[C@H](Cc2ccc(O)cc2)NC(=O)[C@@H](NC(=O)[C@H](N)Cc2ccc3ccccc3c2)CSSC[C@H](C(=O)N[C@@H](Cc2ccc3ccccc3c2)C(N)=O)NC1=O [Analog #11] (H-[d2Nal]CY[dW]KV[dC][2Nal]-NH2; disulfide 2-7) for NMB receptor (Rattus norvegicus).
1.2 to 1.8 µM

Check NMB receptor (Rattus norvegicus) data and give IC50 for CC(C)[C@@H]1NC(=O)[C@H](CCCCN)NC(=O)[C@@H](Cc2c[nH]c3ccccc23)NC(=O)[C@H](Cc2ccc3ccccc3c2)NC(=O)[C@@H](NC(=O)[C@H](N)Cc2ccccc2)CSSC[C@@H](C(=O)N[C@H](C(N)=O)[C@@H](C)O)NC1=O [Analog #18] (H-[dF]C[2Nal][dW]KVCT-NH2; disulfide 2-7) .
> 10 µM

* * *

target: rat NMB receptor (Rattus norvegicus, UniProt P24053); construct: a full length NMB-preferring bombesin receptor clone generated from rat esophagus; expressed in transfected cells; test: Binding of 125I-[D-Tyr0]NMB to NMB-R transfected BALB 3T3 cells; conditions: NMB-R transfected cells
Sequence (P24053 whole entry): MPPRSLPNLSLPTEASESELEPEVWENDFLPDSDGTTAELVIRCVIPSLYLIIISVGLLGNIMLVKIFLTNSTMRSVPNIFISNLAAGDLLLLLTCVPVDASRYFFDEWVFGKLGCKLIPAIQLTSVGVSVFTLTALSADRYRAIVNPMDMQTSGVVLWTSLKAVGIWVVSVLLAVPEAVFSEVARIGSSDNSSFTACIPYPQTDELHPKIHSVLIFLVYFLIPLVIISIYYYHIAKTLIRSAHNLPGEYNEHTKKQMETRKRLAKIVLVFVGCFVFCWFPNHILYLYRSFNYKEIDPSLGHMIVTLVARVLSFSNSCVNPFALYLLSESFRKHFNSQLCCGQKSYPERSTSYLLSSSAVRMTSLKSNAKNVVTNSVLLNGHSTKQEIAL
Where a SMILES comes first, the peptide text is derived from it. Bridges are numbered along the chain shown (N, C = ends). [ ]: non-standard residue; d: D form. 2Nal = N[C@@H](Cc1ccc2ccccc2c1)C(=O)O; d2Nal = N[C@H](Cc1ccc2ccccc2c1)C(=O)O
Outcome Measure: fold by which cyclo SS-octa is more potent than the analog, 125I-NMB binding
# number then unit; no other words

Look up and state reported fold by which cyclo SS-octa is more potent than the analog, 125I-NMB binding for `CC(C)[C@@H]1NC(=O)[C@H](CCCCN)NC(=O)[C@@H](Cc2c[nH]c3ccccc23)NC(=O)[C@H](Cc2ccc(O)cc2)NC(=O)[C@@H](NC(=O)[C@H](N)Cc2ccc3ccccc3c2)CSSC[C@@H](C(=O)N[C@H](C(N)=O)[C@@H](C)O)NC1=O`
69 fold

Specify reported fold by which cyclo SS-octa is more potent than the analog, 125I-NMB binding for the compound shown: NCCCC[C@@H]1NC(=O)[C@@H](Cc2c[nH]c3ccccc23)NC(=O)[C@H](Cc2ccc(O)cc2)NC(=O)[C@@H](NC(=O)[C@H](N)Cc2ccc3ccccc3c2)CSSC[C@@H](C(=O)N[C@@H](Cc2ccc3ccccc3c2)C(N)=O)NC(=O)[C@H](Cc2ccccc2)NC1=O [Analog #13] (H-[d2Nal]CY[dW]KFC[2Nal]-NH2; disulfide 2-7)
2 fold

Given CC(C)[C@@H]1NC(=O)[C@H](CCCCN)NC(=O)[C@@H](Cc2c[nH]c3ccccc23)NC(=O)[C@H](Cc2ccc(O)cc2)NC(=O)[C@@H](NC(=O)[C@H](N)Cc2c[nH]c3ccccc23)CSSC[C@@H](C(=O)N[C@@H](Cc2ccc3ccccc3c2)C(N)=O)NC1=O [Analog #12] (H-[dW]CY[dW]KVC[2Nal]-NH2; disulfide 2-7) , respond with its fold by which cyclo SS-octa is more potent than the analog, 125I-NMB binding.
9 fold

* * *

target: GRP receptor (Rattus norvegicus, UniProt P52500); assay: Amylase release from rat pancreatic acini (alone or Bn-stimulated); conditions: read-out: IC50 Amylase Release, GRP Receptor, Rat Pancreatic Acini
Sequence (P52500 whole entry): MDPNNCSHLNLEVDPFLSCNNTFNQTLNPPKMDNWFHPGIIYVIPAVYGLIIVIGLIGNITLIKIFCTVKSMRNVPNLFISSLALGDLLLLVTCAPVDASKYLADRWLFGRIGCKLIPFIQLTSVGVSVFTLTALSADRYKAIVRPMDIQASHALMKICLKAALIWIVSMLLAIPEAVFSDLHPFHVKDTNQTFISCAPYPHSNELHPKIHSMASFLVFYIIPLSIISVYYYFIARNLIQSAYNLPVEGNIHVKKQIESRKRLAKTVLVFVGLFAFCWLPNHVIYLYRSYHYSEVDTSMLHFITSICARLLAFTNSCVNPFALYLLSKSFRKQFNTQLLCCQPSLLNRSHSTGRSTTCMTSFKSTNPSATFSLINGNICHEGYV
pIC50: −log10 of the molar value. Where a SMILES comes first, the peptide text is derived from it. Bridges are numbered along the chain shown (N, C = ends). [ ]: non-standard residue; d: D form. 2Nal = N[C@@H](Cc1ccc2ccccc2c1)C(=O)O; d2Nal = N[C@H](Cc1ccc2ccccc2c1)C(=O)O
Outcome Measure: pIC50

Give me measured pIC50, please, for this molecule: NCCCC[C@@H]1NC(=O)[C@@H](Cc2c[nH]c3ccccc23)NC(=O)[C@H](Cc2ccc(O)cc2)NC(=O)[C@@H](NC(=O)[C@H](N)Cc2ccc3ccccc3c2)CSSC[C@@H](C(=O)N[C@@H](Cc2ccc3ccccc3c2)C(N)=O)NC(=O)[C@H](Cc2ccccc2)NC1=O [Analog #13] (H-[d2Nal]CY[dW]KFC[2Nal]-NH2; disulfide 2-7)
< 5.00

Provide measured pIC50 value, entry: CC(C)[C@@H]1NC(=O)[C@H](CCCCN)NC(=O)[C@@H](Cc2c[nH]c3ccccc23)NC(=O)[C@H](Cc2ccc(O)cc2)NC(=O)[C@@H](NC(=O)[C@H](N)Cc2ccc3ccccc3c2)CSSC[C@@H](C(=O)N[C@H](Cc2ccc3ccccc3c2)C(N)=O)NC1=O [Analog #8] (H-[d2Nal]CY[dW]KVC[d2Nal]-NH2; disulfide 2-7)
< 5.00

* * *

target: GRP receptor (Rattus norvegicus, UniProt P52500); assay: Amylase release from rat pancreatic acini (alone or Bn-stimulated); conditions: read-out: IC50 Amylase Release, GRP Receptor, Rat Pancreatic Acini
Where a SMILES comes first, the peptide text is derived from it. Bridges are numbered along the chain shown (N, C = ends). [ ]: non-standard residue; d: D form. 2Nal = N[C@@H](Cc1ccc2ccccc2c1)C(=O)O; Lys(Et2) = CCN(CC)CCCC[C@H](N)C(=O)O; Lys(iPr) = CC(C)NCCCC[C@H](N)C(=O)O
Hi there, I'd appreciate the recorded IC50 for every entry that follows.

Please look at this compound and report its IC50: CCN(CC)CCCC[C@@H]1NC(=O)[C@@H](Cc2c[nH]c3ccccc23)NC(=O)[C@H](Cc2ccc(O)cc2)NC(=O)[C@@H](NC(=O)[C@H](N)Cc2ccccc2)CSSC[C@@H](C(=O)N[C@@H](Cc2ccc3ccccc3c2)C(N)=O)NC(=O)[C@H]([C@@H](C)O)NC1=O [Analog #16] (H-[dF]CY[dW][Lys(Et2)]TC[2Nal]-NH2; disulfide 2-7)
> 10 µM

Consider the compound CC(C)[C@@H]1NC(=O)[C@H](CCCCN)NC(=O)[C@@H](Cc2c[nH]c3ccccc23)NC(=O)[C@H](Cc2ccc(O)cc2)NC(=O)[C@@H](NC(=O)[C@H](N)Cc2ccccc2)CSSC[C@@H](C(=O)N[C@@H](Cc2ccc3ccccc3c2)C(N)=O)NC1=O [Analog #4] (H-[dF]CY[dW]KVC[2Nal]-NH2; disulfide 2-7) and give its recorded IC50.
> 10 µM

Output measured IC50 for this item: CC(C)NCCCC[C@@H]1NC(=O)[C@@H](Cc2c[nH]c3ccccc23)NC(=O)[C@H](Cc2ccc(O)cc2)NC(=O)[C@@H](NC(=O)[C@H](N)Cc2ccccc2)CSSC[C@@H](C(=O)N[C@@H](Cc2ccc3ccccc3c2)C(N)=O)NC(=O)[C@H]([C@@H](C)O)NC1=O [Analog #15] (H-[dF]CY[dW][Lys(iPr)]TC[2Nal]-NH2; disulfide 2-7)
> 10 µM
